Each entry below carries its recorded RLU.
- target: T1, human CD71 extracellular domain (CD71-ECD) (human, UniProt P02786 89-760)
- T1 construct: also called hCD71; human CD71-ECD
- T1 sequence (P02786 89-760): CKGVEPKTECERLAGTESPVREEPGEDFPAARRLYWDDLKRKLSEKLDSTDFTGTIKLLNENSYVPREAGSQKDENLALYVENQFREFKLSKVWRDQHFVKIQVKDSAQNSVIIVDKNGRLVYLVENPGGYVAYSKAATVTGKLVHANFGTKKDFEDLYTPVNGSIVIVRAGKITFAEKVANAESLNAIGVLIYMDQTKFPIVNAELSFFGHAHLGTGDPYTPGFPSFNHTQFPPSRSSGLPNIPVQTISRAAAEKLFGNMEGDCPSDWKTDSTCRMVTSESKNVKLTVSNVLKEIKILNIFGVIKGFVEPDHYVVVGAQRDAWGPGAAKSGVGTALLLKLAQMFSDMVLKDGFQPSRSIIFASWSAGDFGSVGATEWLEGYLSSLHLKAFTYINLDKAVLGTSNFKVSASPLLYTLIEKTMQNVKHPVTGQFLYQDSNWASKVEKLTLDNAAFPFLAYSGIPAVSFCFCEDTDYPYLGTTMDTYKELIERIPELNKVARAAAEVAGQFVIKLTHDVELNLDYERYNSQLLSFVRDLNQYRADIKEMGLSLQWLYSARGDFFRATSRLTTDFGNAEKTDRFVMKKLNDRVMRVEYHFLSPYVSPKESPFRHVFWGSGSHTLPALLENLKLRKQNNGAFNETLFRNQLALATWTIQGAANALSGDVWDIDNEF
- protocolDescription: primary ELISA; note: test concentration or dose not given here
Remember to put the unit after the number in your answer.

{"columns": ["binder", "RLU"],
 "data": [
  ["CD71-binding FN3 domain SEQ ID NO: 282 (designed binder) MSLPAPKNLVVSRVTEDSARLSWTAPDAAFDSFDIGYFELTWYGEAIVLTVPGSERSYDLTGLKPGTEYWVSIGGVKGGRFSEPLYARFTT", "3.2e+06 RLU"],
  ["CD71-binding FN3 domain SEQ ID NO: 273 (designed binder) MLPAPKNLVVSRVTEDSARLSWTAPDAAFDSFEISYWEHTFNGEAIILFVPGSERSYDLTGLKPGTEYYVTIGGVKGGAWSPPLWAEFTT", "3.78e+06 RLU"],
  ["CD71-binding FN3 domain SEQ ID NO: 276 (designed binder) MSLPAPKNLVVSRVTEDSARLSWTAPDAAFDSFEIAYFELDYVGEAIVLTVPGSERSYDLTGLKPGTEYWVQIGGVKGGTWSGPLSAIFTI", "3.13e+06 RLU"]
]}

Request: Fill in: RLU of CD71-binding FN3 domain SEQ ID NO: 313 (designed binder) MSLPAPKNLVVSRVTEDSARLSWTAPDAAFDSFEIAYFENDWAGEAIVLTIPGSERSYDLTGLKPGTEYWVQIGGVKGGNWSAPLSAIFTT is ___
Response: 2.97e+06 RLU
